Known EC50 of a selection of compounds
Molecular target: hTAS1R2/hTAS1R3 (Homo sapiens, UniProt Q7RTX0+Q8TE23)
Construct: expressed in transfected cells; host or cells: HEK293T cells stably expressing G16Gust44
Sequence (Q8TE23 20-839): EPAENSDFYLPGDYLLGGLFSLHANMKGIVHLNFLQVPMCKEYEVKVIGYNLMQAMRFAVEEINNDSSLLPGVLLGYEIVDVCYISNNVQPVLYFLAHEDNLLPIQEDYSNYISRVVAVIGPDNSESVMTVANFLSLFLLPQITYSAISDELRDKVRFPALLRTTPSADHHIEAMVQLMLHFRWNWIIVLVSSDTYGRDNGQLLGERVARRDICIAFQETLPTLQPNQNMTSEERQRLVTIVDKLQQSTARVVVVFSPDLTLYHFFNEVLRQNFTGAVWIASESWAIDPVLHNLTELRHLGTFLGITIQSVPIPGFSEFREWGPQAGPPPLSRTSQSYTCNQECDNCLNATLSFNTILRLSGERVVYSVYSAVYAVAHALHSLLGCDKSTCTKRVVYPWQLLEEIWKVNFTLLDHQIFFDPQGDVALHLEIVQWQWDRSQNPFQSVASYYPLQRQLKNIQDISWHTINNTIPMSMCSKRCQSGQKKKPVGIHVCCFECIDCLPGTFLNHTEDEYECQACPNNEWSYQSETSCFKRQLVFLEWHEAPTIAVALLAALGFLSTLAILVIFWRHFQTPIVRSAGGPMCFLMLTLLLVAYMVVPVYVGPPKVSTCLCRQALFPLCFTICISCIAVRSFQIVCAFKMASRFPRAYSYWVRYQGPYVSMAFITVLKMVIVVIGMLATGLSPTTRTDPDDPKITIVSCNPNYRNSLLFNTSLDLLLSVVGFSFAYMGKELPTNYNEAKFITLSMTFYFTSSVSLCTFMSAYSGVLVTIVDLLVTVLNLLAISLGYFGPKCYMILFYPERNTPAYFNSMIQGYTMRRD
Sequence (Q7RTX0 21-852): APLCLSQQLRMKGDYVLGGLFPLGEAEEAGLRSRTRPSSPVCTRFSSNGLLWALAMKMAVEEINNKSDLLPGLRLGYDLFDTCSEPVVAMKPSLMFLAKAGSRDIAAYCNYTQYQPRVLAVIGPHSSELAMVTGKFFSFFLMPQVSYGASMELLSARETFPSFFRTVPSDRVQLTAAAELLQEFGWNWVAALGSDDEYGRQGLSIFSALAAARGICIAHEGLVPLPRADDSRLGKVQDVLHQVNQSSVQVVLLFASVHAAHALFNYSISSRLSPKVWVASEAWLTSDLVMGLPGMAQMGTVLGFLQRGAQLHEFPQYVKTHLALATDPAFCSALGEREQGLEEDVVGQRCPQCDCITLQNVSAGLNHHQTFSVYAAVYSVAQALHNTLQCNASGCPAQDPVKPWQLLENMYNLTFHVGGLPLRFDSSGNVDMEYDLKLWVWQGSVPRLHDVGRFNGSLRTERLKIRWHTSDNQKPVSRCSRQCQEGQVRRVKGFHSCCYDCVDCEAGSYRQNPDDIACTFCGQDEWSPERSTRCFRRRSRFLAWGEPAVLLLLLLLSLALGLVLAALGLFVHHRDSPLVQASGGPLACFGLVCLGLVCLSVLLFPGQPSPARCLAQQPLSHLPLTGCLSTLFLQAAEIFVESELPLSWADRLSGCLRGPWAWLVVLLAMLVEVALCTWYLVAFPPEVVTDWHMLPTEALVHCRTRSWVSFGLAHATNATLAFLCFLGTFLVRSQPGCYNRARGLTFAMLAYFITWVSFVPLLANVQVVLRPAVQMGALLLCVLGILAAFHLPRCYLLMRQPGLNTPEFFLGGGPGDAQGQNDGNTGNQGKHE
Test: Calcium response (FLIPR) of HEK293T-G16Gust44 cells, wild type receptor
Type: cell-based
Details: wt receptor; average ± SD, at least three experiments
Where a SMILES comes first, the peptide text is derived from it.
Test readout: EC50 (µM)

- Compound: "O=S(=O)(O)NC1CCCCC1 [cyclamate]"
  Unit string: "µM"
  Numeric result: 1900
- Compound: "COc1ccc(CCC(=O)c2c(O)cc(O[C@@H]3O[C@H](CO)[C@@H](O)[C@H](O)[C@H]3O[C@@H]3O[C@@H](C)[C@H](O)[C@@H](O)[C@H]3O)cc2O)cc1O [NHDC, neohesperidin dihydrochalcone]"
  Unit string: "µM"
  Numeric result: 100
- Compound: "COC(=O)[C@H](Cc1ccccc1)NC(=O)[C@@H](N)CC(=O)O [aspartame] (HELM PEPTIDE1{D.F.[CO[*:1]]}$$$$V2.0)"
  Unit string: "µM"
  Numeric result: 1300

====

target: hTAS1R2 + hTAS1R3 S726A^5.39 (Homo sapiens, UniProt Q7RTX0+Q8TE23, S726A); test: Calcium response (FLIPR), hTAS1R3 mutant coexpressed with hTAS1R2; conditions: variant S726A^5.39
pEC50: −log10 of the molar value. Where a SMILES comes first, the peptide text is derived from it.

- Molecule: "O=S(=O)(O)NC1CCCCC1 [cyclamate]"
  Result comparator: "<"
  pEC50: 2.00
- Molecule: "COc1ccc(CCC(=O)c2c(O)cc(O[C@@H]3O[C@H](CO)[C@@H](O)[C@H](O)[C@H]3O[C@@H]3O[C@@H](C)[C@H](O)[C@@H](O)[C@H]3O)cc2O)cc1O [NHDC, neohesperidin dihydrochalcone]"
  Result comparator: "="
  pEC50: 3.05
- Molecule: "COC(=O)[C@H](Cc1ccccc1)NC(=O)[C@@H](N)CC(=O)O [aspartame] (HELM PEPTIDE1{D.F.[CO[*:1]]}$$$$V2.0)"
  Result comparator: "="
  pEC50: 3.05

====

molecular target: hTAS1R2 + hTAS1R3 G804V^7.42 (Homo sapiens, UniProt Q7RTX0+Q8TE23, G804V); construct: expressed in transfected cells; host or cells: HEK293T cells stably expressing G16Gust44; assay: Calcium response (FLIPR), hTAS1R3 mutant coexpressed with hTAS1R2; format: cell-based; conditions: variant G804V^7.42; n.r. = no response to NHDC up to highest tested concentration (6 mM), but responses to other sweeteners; read-out: EC50
Where a SMILES comes first, the peptide text is derived from it.
Test readout: EC50 (mM)

- Molecule: "COC(=O)[C@H](Cc1ccccc1)NC(=O)[C@@H](N)CC(=O)O [aspartame] (HELM PEPTIDE1{D.F.[CO[*:1]]}$$$$V2.0)"
  Target desc: "hTAS1R2 + hTAS1R3 G804V^7.42 (Homo sapiens, UniProt Q7RTX0+Q8TE23, G804V)"
  Test readout: "EC50"
  Numeric result: 1.3

====

target: hTAS1R2/hTAS1R3 (Homo sapiens, UniProt Q7RTX0+Q8TE23); construct: expressed in transfected cells; host or cells: HEK293T cells stably expressing G16Gust44; assay: Concentration-response curves of sweeteners in the presence of different lactisole concentrations; format: cell-based; conditions: 0.0 μM lactisole
Where a SMILES comes first, the peptide text is derived from it.
Test readout: EC50 (mM)

- Compound: "COc1ccc(CCC(=O)c2c(O)cc(O[C@@H]3O[C@H](CO)[C@@H](O)[C@H](O)[C@H]3O[C@@H]3O[C@@H](C)[C@H](O)[C@@H](O)[C@H]3O)cc2O)cc1O [NHDC, neohesperidin dihydrochalcone]"
  Target desc: "hTAS1R2/hTAS1R3 (Homo sapiens, UniProt Q7RTX0+Q8TE23)"
  Unit string: "mM"
  Numeric result: 0.2
- Compound: "CC1=CC(=O)NS(=O)(=O)O1 [acesulfame K]"
  Target desc: "hTAS1R2/hTAS1R3 (Homo sapiens, UniProt Q7RTX0+Q8TE23)"
  Unit string: "mM"
  Numeric result: 0.12
- Compound: "O=S(=O)(O)NC1CCCCC1 [cyclamate]"
  Target desc: "hTAS1R2/hTAS1R3 (Homo sapiens, UniProt Q7RTX0+Q8TE23)"
  Unit string: "mM"
  Numeric result: 2.2
- Compound: "COC(=O)[C@H](Cc1ccccc1)NC(=O)[C@@H](N)CC(=O)O [aspartame] (HELM PEPTIDE1{D.F.[CO[*:1]]}$$$$V2.0)"
  Target desc: "hTAS1R2/hTAS1R3 (Homo sapiens, UniProt Q7RTX0+Q8TE23)"
  Unit string: "mM"
  Numeric result: 0.5

Values were extracted from paper PMC2099433.
